Items are presented alongside their recorded pIC50.
Molecular target: BCL6::BCOR (Homo sapiens, UniProt P41182, C67R/C84N/C8Q)
Construct: BCL6 (amino acids 5 to 129, with the following changes to the natural protein)
Assay: BCL6::BCOR ULight TR-FRET assay
pIC50: −log10 of the molar value.
Observed property: pIC50

[[record]]
compound = "CNC(=O)COc1cc2cc(Nc3nc(N4CCC(CC(=O)O)CC4)ncc3Cl)ccc2n(C)c1=O"
test_target = "BCL6::BCOR (Homo sapiens, UniProt P41182, C67R/C84N/C8Q)"
observed_property = "pIC50"
number = 8.40

[[record]]
compound = "CCn1c(=O)c(OCC(=O)NC)cc2cc(Nc3nc(N4CCC(F)CC4)ncc3Cl)ccc21"
test_target = "BCL6::BCOR (Homo sapiens, UniProt P41182, C67R/C84N/C8Q)"
observed_property = "pIC50"
number = 8.30

[[record]]
compound = "CCC1CN(c2ncc(Cl)c(Nc3ccc4c(c3)cc(OCC(=O)NC)c(=O)n4C)n2)CCN1CC(F)F (centres unmarked)"
test_target = "BCL6::BCOR (Homo sapiens, UniProt P41182, C67R/C84N/C8Q)"
observed_property = "pIC50"
number = 8.22

[[record]]
compound = "Cn1c(=O)c(OCC(=O)O)cc2cc(Nc3nc(N4CCc5[nH]nnc5C4)ncc3Cl)ccc21"
test_target = "BCL6::BCOR (Homo sapiens, UniProt P41182, C67R/C84N/C8Q)"
observed_property = "pIC50"
number = 8.00

[[record]]
compound = "CNC(=O)COc1cc2cc(Nc3nc(N4CCCC(C)(C#N)C4)ncc3Cl)ccc2n(C)c1=O (centres unmarked)"
test_target = "BCL6::BCOR (Homo sapiens, UniProt P41182, C67R/C84N/C8Q)"
observed_property = "pIC50"
number = 7.64

[[record]]
compound = "CCn1c(=O)c(OCC(=O)NC)cc2cc(Nc3nc(N4CCC(F)(F)CC4)ncc3Cl)ccc21"
test_target = "BCL6::BCOR (Homo sapiens, UniProt P41182, C67R/C84N/C8Q)"
observed_property = "pIC50"
number = 8.30

[[record]]
compound = "CNC(=O)COc1cc2cc(Nc3nc(N4CCN(CC(=O)O)C(=O)C4)ncc3Cl)ccc2n(C)c1=O"
test_target = "BCL6::BCOR (Homo sapiens, UniProt P41182, C67R/C84N/C8Q)"
observed_property = "pIC50"
number = 8.40

[[record]]
compound = "C[C@@H]1C[C@H](C)CN(c2ccc(Cl)c(Nc3ccc4c(c3)cc(OCC(=O)O)c(=O)n4C)n2)C1"
test_target = "BCL6::BCOR (Homo sapiens, UniProt P41182, C67R/C84N/C8Q)"
observed_property = "pIC50"
number = 6.97

[[record]]
compound = "CNC(=O)COc1cc2cc(Nc3nc(N4CCC(N5CCCCC5)CC4)ncc3Cl)ccc2n(C)c1=O"
test_target = "BCL6::BCOR (Homo sapiens, UniProt P41182, C67R/C84N/C8Q)"
observed_property = "pIC50"
number = 8.05

[[record]]
compound = "Cn1cnc2c1CCN(c1ncc(Cl)c(Nc3ccc4c(c3)cc(OCC(=O)O)c(=O)n4C)n1)C2"
test_target = "BCL6::BCOR (Homo sapiens, UniProt P41182, C67R/C84N/C8Q)"
observed_property = "pIC50"
number = 8.05

[[record]]
compound = "CNC(=O)COc1cc2cc(Nc3nc(N4CC(C)C(C(=O)N(C)C)C(C)C4)ncc3Cl)ccc2n(C)c1=O (centres unmarked)"
test_target = "BCL6::BCOR (Homo sapiens, UniProt P41182, C67R/C84N/C8Q)"
observed_property = "pIC50"
number = 8.30

[[record]]
compound = "CNC(=O)COc1cc2cc(Nc3nc(N4CCC(C(=O)NCCCCCCN)CC4)ncc3Cl)ccc2n(C)c1=O"
test_target = "BCL6::BCOR (Homo sapiens, UniProt P41182, C67R/C84N/C8Q)"
observed_property = "pIC50"
number = 8.22

[[record]]
compound = "CNC(=O)COc1cc2cc(Nc3nc(N4CCC(C(=O)NCCOCCOCCN)CC4)ncc3Cl)ccc2n(C)c1=O"
test_target = "BCL6::BCOR (Homo sapiens, UniProt P41182, C67R/C84N/C8Q)"
observed_property = "pIC50"
number = 8.30

[[record]]
compound = "CNC(=O)COc1cc2cc(Nc3nc(N4CCOCC4)ncc3Cl)ccc2n(C)c1=O"
test_target = "BCL6::BCOR (Homo sapiens, UniProt P41182, C67R/C84N/C8Q)"
observed_property = "pIC50"
number = 8.30

[[record]]
compound = "CNC(=O)COc1cc2cc(Nc3nc(N4CCC(N5CCCCCC5)CC4)ncc3Cl)ccc2n(C)c1=O"
test_target = "BCL6::BCOR (Homo sapiens, UniProt P41182, C67R/C84N/C8Q)"
observed_property = "pIC50"
number = 8.15

[[record]]
compound = "C[C@@H]1C[C@H](C)CN(c2ncc(Cl)c(Nc3ccc4c(c3)cc(OCC(=O)NCC(O)C(F)(F)F)c(=O)n4C)n2)C1 (some centres unmarked)"
test_target = "BCL6::BCOR (Homo sapiens, UniProt P41182, C67R/C84N/C8Q)"
observed_property = "pIC50"
number = 6.57

[[record]]
compound = "Cn1c(=O)c(OCC(=O)O)cc2cc(Nc3nc(N4CCC(F)CC4)ncc3Cl)ccc21"
test_target = "BCL6::BCOR (Homo sapiens, UniProt P41182, C67R/C84N/C8Q)"
observed_property = "pIC50"
number = 8.30

[[record]]
compound = "CNC(=O)COc1cc2cc(Nc3nc(N4CCC(F)CC4)ncc3Cl)ccc2n(CC2CC2)c1=O"
test_target = "BCL6::BCOR (Homo sapiens, UniProt P41182, C67R/C84N/C8Q)"
observed_property = "pIC50"
number = 8.22

[[record]]
compound = "CNC(=O)COc1cc2cc(Nc3nc(N4CCC(F)(F)CC4)ncc3Cl)ccc2n(C(C)C)c1=O"
test_target = "BCL6::BCOR (Homo sapiens, UniProt P41182, C67R/C84N/C8Q)"
observed_property = "pIC50"
number = 8.05

[[record]]
compound = "Cc1cc(C)n(-c2ncc(Cl)c(Nc3ccc4c(c3)cc(OCC(=O)O)c(=O)n4C)n2)n1"
test_target = "BCL6::BCOR (Homo sapiens, UniProt P41182, C67R/C84N/C8Q)"
observed_property = "pIC50"
number = 7.96

[[record]]
compound = "CNC(=O)COc1cc2cc(Nc3nc(-n4nc(C(=O)N5CCN(C)CC5)cc4C)ncc3Cl)ccc2n(C)c1=O"
test_target = "BCL6::BCOR (Homo sapiens, UniProt P41182, C67R/C84N/C8Q)"
observed_property = "pIC50"
number = 7.80

[[record]]
compound = "CNC(=O)COc1cc2cc(Nc3nc(N4CCC(F)CC4)ncc3Cl)ccc2n(C)c1=O"
test_target = "BCL6::BCOR (Homo sapiens, UniProt P41182, C67R/C84N/C8Q)"
observed_property = "pIC50"
number = 8.40

[[record]]
compound = "CNC(=O)COc1cc2cc(Nc3nc(N4CCC(C(=O)N5CCN(C)CC5)CC4)ncc3Cl)ccc2n(C)c1=O"
test_target = "BCL6::BCOR (Homo sapiens, UniProt P41182, C67R/C84N/C8Q)"
observed_property = "pIC50"
number = 8.15

[[record]]
compound = "Cn1c(=O)c(OCC(=O)O)cc2cc(Nc3nc(N4CCC(N5CCOCC5)C4)ncc3Cl)ccc21 (centres unmarked)"
test_target = "BCL6::BCOR (Homo sapiens, UniProt P41182, C67R/C84N/C8Q)"
observed_property = "pIC50"
number = 7.96

[[record]]
compound = "CNC(=O)COc1cc2cc(Nc3nc(N4CCC(F)CC4)ncc3F)ccc2n(C)c1=O"
test_target = "BCL6::BCOR (Homo sapiens, UniProt P41182, C67R/C84N/C8Q)"
observed_property = "pIC50"
number = 8.00

[[record]]
compound = "CNC(=O)COc1cc2cc(Nc3nc(N4CCCN(C)CC4)ncc3Cl)ccc2n(C)c1=O"
test_target = "BCL6::BCOR (Homo sapiens, UniProt P41182, C67R/C84N/C8Q)"
observed_property = "pIC50"
number = 7.89

[[record]]
compound = "C[C@@H]1C[C@H](C)CN(c2ncc(Cl)c(Nc3ccc4c(c3)cc(OCC(=O)OCCN(C)C)c(=O)n4C)n2)C1"
test_target = "BCL6::BCOR (Homo sapiens, UniProt P41182, C67R/C84N/C8Q)"
observed_property = "pIC50"
number = 8.22

[[record]]
compound = "CNC(=O)COc1cc2cc(Nc3nc(N4CCC(C(C)(C)C(=O)O)CC4)ncc3Cl)ccc2n(C)c1=O"
test_target = "BCL6::BCOR (Homo sapiens, UniProt P41182, C67R/C84N/C8Q)"
observed_property = "pIC50"
number = 8.40

[[record]]
compound = "CNC(=O)COc1cc2cc(Nc3nc(N4CCN(CCC(=O)O)C(=O)C4)ncc3Cl)ccc2n(C)c1=O"
test_target = "BCL6::BCOR (Homo sapiens, UniProt P41182, C67R/C84N/C8Q)"
observed_property = "pIC50"
number = 8.30


All values here come from patent US11001570B2.
